This section presents binders with their documented pKd values.
TARGET_OF_ASSAY: T1, cynomolgus monkey BCMA (cynomolgus monkey, UniProt A0A2K5UD97 1-53)
T1 construct: Soluble analyte in SPR; construct not described; also called cyBCMA; Cyno BCMA
TEST_DETAILS: SPR, IgG on chip, cyBCMA analyte, 37C
pKd: −log10 of the molar value.

BINDER	pKd
L3.PY/L1.FF/H2.DY (antibody, V domains shown, IgG) VH: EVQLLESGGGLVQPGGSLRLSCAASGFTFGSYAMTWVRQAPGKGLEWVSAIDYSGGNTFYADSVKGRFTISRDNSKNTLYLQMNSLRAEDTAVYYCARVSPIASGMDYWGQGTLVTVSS VL: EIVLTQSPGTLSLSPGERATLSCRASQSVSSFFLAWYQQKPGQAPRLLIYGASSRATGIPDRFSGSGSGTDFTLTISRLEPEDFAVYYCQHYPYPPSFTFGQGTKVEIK	8.73
L3.PY/L3.KF/H2.DY (antibody, V domains shown, IgG) VH: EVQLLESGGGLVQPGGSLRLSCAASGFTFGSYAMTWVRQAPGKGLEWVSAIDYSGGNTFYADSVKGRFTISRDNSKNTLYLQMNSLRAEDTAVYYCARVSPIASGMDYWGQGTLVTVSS VL: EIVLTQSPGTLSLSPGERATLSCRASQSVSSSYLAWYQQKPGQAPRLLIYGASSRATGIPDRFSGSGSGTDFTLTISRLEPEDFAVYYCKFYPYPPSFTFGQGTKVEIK	8.75
